Target: benzodiazepine receptor
Test: in vitro benzodiazepine receptor binding assay (inhibition of specific binding of 2 nM tritiated diazepam)
Conditions: membranes from rat fore-brain, 0°-5°, 30 minutes, pH7.5
Experimental: The benzodiazepine receptor binding properties indicative of the nervous system regulatory activity of said new compounds are determined in the receptor binding assay in vitro, e.g. as described in Nature 266, 732 (1977) or Proc. Nat. Acad. Sci. USA 74, 3805 (1977). […] The membranes, containing the receptors with various amounts of tritiated diazepam, are filtered onto glass fiber filters, which are then analyzed in a liquid scintillation counter. […]
REPORTED_ENDPOINT: IC50

Below, each entry is followed by its recorded IC50 result.
1. O=c1c2c[nH]c3ccccc3c-2nn1-c1nccs1 ... ~0.3 nM
2. O=c1c2c[nH]c3ccccc3c-2nn1-c1ncccn1 ... ~6 nM

Request the reported IC50 associated with O=c1c2c[nH]c3ccc(F)cc3c-2nn1-c1ncccn1
~2 nM
